# study.target: LTA4-h (Homo sapiens, UniProt P09960)
# Sequence (P09960 whole entry): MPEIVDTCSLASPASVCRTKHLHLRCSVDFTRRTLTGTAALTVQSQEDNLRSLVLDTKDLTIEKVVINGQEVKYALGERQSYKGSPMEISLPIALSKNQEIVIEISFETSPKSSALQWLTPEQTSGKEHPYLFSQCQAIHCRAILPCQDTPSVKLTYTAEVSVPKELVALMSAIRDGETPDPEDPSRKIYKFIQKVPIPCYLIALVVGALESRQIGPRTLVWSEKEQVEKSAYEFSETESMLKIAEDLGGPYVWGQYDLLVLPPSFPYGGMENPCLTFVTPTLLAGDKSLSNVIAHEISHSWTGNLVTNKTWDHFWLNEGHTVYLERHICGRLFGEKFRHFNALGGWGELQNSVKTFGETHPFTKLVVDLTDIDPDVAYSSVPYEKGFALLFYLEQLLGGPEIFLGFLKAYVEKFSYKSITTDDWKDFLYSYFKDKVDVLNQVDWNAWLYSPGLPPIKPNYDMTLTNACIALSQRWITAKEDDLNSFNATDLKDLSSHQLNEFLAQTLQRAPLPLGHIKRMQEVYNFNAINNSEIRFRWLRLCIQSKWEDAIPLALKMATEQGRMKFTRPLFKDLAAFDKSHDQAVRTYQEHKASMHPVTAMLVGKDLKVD
# assay.summary: peptidase (aminopeptidase) assay
# Format: biochemical
Give measured IC50 for each item. Keep answers brief.
Write the number in nM without appending the unit.

Q: State the recorded IC50 for this entry: `N#Cc1c(Nc2ccc(Oc3ccccc3)cc2)nn2cc(N)cnc12`
Ans: 280

Q: State the recorded IC50 for this entry: `N#Cc1c(Nc2ccc(Oc3ccccc3)cc2)nn2cc(-c3ccc(C(=O)O)cc3[N+](=O)[O-])cnc12`
Ans: 120

Q: State the recorded IC50 for this entry: `N#Cc1c(Nc2ccc(Oc3ccccc3)cc2)nn2cc(-c3cccc(C(=O)O)n3)cnc12`
Ans: 270

Q: State the recorded IC50 for this entry: `N#Cc1c(Nc2ccc(Oc3ccccc3)cc2)nn2cc(C(=O)c3cc(Cl)cc(Cl)c3O)cnc12`
Ans: 960
